# Test system: MAP 303
# ASSAY NAME: radiometric 14CO2 BACTEC 460 growth culture, MAP 303
# Format: cell-based, Mycobacterium avium subspecies paratuberculosis
# STATED CONDITIONS: 16 μg/ml
Listed compounds paired with reported percent change from control cGI (% ΔcGI / % −ΔcGI)
Express the result in % but write the number alone.

In the examples that follow, each entry is paired with its recorded percent change from control cGI (% ΔcGI / % −ΔcGI).
NC(=O)c1ccc[n+]([C@H]2O[C@H](COP(=O)([O-])OP(=O)(O)OC[C@H]3O[C@@H](n4cnc5c(N)ncnc54)[C@H](O)[C@@H]3O)[C@@H](O)[C@H]2O)c1 [α-NAD, α-nicotinamide adenine dinucleotide] = −8
NNC(=O)c1ccncc1 [INH, Isoniazid, reference compound] = −12

Returns the measured percent change from control cGI (% ΔcGI / % −ΔcGI) for the input compound. Input: O=C(O)c1cccnc1 −4

What about this compound? CN1CCCC1c1cccnc1 (stereo not shown) [Nicotine, nicotine, reference compound] −22
